procedure text: Oral bioavailability in rat
Type: ADME, organism-based
condition details: in vivo
assay readout: bioavailability (%)

>>> value_reported("O=C(Nc1ccc(F)cn1)[C@H](CN1CC(O)C1)Oc1ncnc2c1cnn2-c1c(Cl)cccc1Cl")
28
>>> value_reported("Cc1cnc(NC(=O)[C@H](CO[C@H](C)CO)Oc2ncnc3c2cnn3-c2c(Cl)cccc2C#N)cn1")
100

[A] O=C(Nc1ccc(F)cn1)[C@H](CN1CC(O)C1)Oc1ncnc2c1cnn2-c1ccccc1Cl
[B] Cc1cnc(NC(=O)[C@H](CN2CC(O)C2)Oc2ncnc3c2cnn3-c2c(Cl)cccc2Cl)cn1
For A and B , which recorded bioavailability is lower? Selection: enter the item's label.
B

###

Species on record: Rattus norvegicus
procedure text: Unbound clearance in rat
Type: ADME, organism-based
condition details: in vivo
assay readout: CL free (mL/min/kg)

>>> value_reported("CC(C)OC[C@H](Oc1ncnc2c1cnn2-c1ncccc1Cl)C(=O)Nc1ccc(C#N)cn1")
81
>>> value_reported("C[C@H](CO)OC[C@H](Oc1ncnc2c1cnn2-c1ncccc1Cl)C(=O)Nc1ccc(Cl)cn1")
190
>>> value_reported("CC(C)OC[C@H](Oc1ncnc2c1cnn2-c1ncccc1Cl)C(=O)Nc1ccc(F)cn1")
600
>>> value_reported("C[C@@H](CO)OC[C@H](Oc1ncnc2c1cnn2-c1ncccc1Cl)C(=O)Nc1ccc(F)cn1")
76
>>> value_reported("CC(C)OC[C@H](Oc1ncnc2c1cnn2-c1ccccc1Cl)C(=O)Nc1ccc(Cl)cn1")
1500
>>> value_reported("N#Cc1cccc(Cl)c1-n1ncc2c(O[C@@H](CN3CC(O)C3)C(=O)Nc3ccc(F)cn3)ncnc21")
260
>>> value_reported("Cc1cnc(NC(=O)[C@H](CN2CC(O)C2)Oc2ncnc3c2cnn3-c2c(Cl)cccc2Cl)cn1")
74
>>> value_reported("O=C(Nc1ccc(Cl)cn1)[C@H](CN1CC(O)C1)Oc1ncnc2c1cnn2-c1ccccc1Cl")
310

[a] O=C(Nc1ccc(F)cn1)[C@H](CN1CC(O)C1)Oc1ncnc2c1cnn2-c1c(F)cccc1Cl
[b] N#Cc1ccc(NC(=O)[C@H](CN2CC(O)C2)Oc2ncnc3c2cnn3-c2ccccc2Cl)nc1
Which has the smaller recorded CL free, a or b ? Response format: the label of the selected entry.
b
(b: 110 mL/min/kg, a: 190 mL/min/kg)

[a] N#Cc1ccc(NC(=O)[C@H](CN2CC(O)C2)Oc2ncnc3c2cnn3-c2c(Cl)cccc2Cl)nc1
[b] Cc1cnc(NC(=O)[C@H](CO[C@H](C)CO)Oc2ncnc3c2cnn3-c2c(Cl)cccc2C#N)cn1
[c] O=C(Nc1ccc(F)cn1)[C@H](COCCO)Oc1ncnc2c1cnn2-c1c(Cl)cccc1Cl
[d] O=C(Nc1ccccn1)[C@H](CN1CC(O)C1)Oc1ncnc2c1cnn2-c1ccccc1Cl
In this exercise, place the 4 compounds in ascending sequence of their recorded CL free. Answer with the labels in sequence, matching the requested order.
b, c, a, d
(b: 39 mL/min/kg, c: 120 mL/min/kg, a: 240 mL/min/kg, d: 420 mL/min/kg)

[1] C[C@H](CO)OC[C@H](Oc1ncnc2c1cnn2-c1ncccc1Cl)C(=O)Nc1ccc(C#N)cn1
[2] O=C(Nc1ccccn1)[C@H](CN1CC(O)C1)Oc1ncnc2c1cnn2-c1c(F)cccc1Cl
Hey, which is lower on measured CL free, 1 or 2 ? Which one? Tell me its label.
1

[a] O=C(Nc1ccc(F)cn1)[C@H](CN1CC(O)C1)Oc1ncnc2c1cnn2-c1ncccc1Cl
[b] CCOC[C@H](Oc1ncnc2c1cnn2-c1ncccc1Cl)C(=O)Nc1ccc(C)cn1
Between the entries labeled a and b , whose measured CL free is lower? # respond with the chosen item's label
a

[I] N#Cc1ccc(NC(=O)[C@H](COCCO)Oc2ncnc3c2cnn3-c2ncccc2Cl)nc1
[II] O=C(Nc1ccc(F)cn1)[C@H](CN1CC(O)C1)Oc1ncnc2c1cnn2-c1ccccc1Cl
[III] Cc1ccc(NC(=O)[C@H](COC(C)C)Oc2ncnc3c2cnn3-c2ncccc2Cl)nc1
Hi! Can you put these in order of CL free, lowest number first? Put the labels in the requested order and write them down.
I, II, III

[a] N#Cc1cccc(Cl)c1-n1ncc2c(O[C@@H](COCCO)C(=O)Nc3ccc(F)cn3)ncnc21
[b] O=C(Nc1ccc(F)cn1)[C@H](CN1CC(O)C1)Oc1ncnc2c1cnn2-c1c(Cl)cccc1Cl
Could you tell me which of a and b has the lower CL free reading? Choose, then provide that item's label.
a
(a: 140 mL/min/kg, b: 320 mL/min/kg)

###

procedure text: Half life in rat plasma
Type: ADME, cell-free
assay readout: half-life (min)

>>> value_reported("C[C@H](CO)OC[C@H](Oc1ncnc2c1cnn2-c1ncccc1Cl)C(=O)Nc1ccc(Cl)cn1")
19

[1] CC(C)OC[C@H](Oc1ncnc2c1cnn2-c1ncccc1Cl)C(=O)Nc1ccc(C#N)cn1
[2] CC(C)OC[C@H](Oc1ncnc2c1cnn2-c1ncccc1Cl)C(=O)Nc1ccc(F)cn1
[3] C[C@@H](CO)OC[C@H](Oc1ncnc2c1cnn2-c1ncccc1Cl)C(=O)Nc1ccc(F)cn1
[4] O=C(Nc1ccc(F)cn1)[C@H](CN1CC(O)C1)Oc1ncnc2c1cnn2-c1ncccc1Cl
Please put the entries in order of rising half-life. When ranking, write the labels in the order the request describes.
3, 2, 1, 4

[A] C[C@H](CO)OC[C@H](Oc1ncnc2c1cnn2-c1ncccc1Cl)C(=O)Nc1ccc(F)cn1
[B] O=C(Nc1ccc(Cl)cn1)[C@H](COCCO)Oc1ncnc2c1cnn2-c1ncccc1Cl
Lower value of half-life belongs to which: A or B ? Answer format: the label of the selected item.
A

###

subject of test: Hexokinase-4 (Homo sapiens, UniProt P35557)
Sequence (P35557 whole entry): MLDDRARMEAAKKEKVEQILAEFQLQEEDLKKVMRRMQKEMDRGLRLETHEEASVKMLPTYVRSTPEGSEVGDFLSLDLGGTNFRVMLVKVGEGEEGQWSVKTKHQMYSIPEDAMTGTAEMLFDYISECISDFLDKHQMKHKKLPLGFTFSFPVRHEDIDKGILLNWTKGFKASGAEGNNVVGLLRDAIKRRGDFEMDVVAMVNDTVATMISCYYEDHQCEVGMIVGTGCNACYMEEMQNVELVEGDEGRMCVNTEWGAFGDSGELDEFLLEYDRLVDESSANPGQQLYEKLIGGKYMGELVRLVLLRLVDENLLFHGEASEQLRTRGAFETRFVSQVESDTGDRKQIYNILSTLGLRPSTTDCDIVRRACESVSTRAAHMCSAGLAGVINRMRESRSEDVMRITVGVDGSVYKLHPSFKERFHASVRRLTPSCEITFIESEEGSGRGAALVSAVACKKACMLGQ
procedure text: Activation of glucokinase (unknown origin)
condition details: read-out: pEC50 (converted)
assay readout: EC50 (nM)

>>> value_reported("N#Cc1ccc(NC(=O)[C@H](CN2CC(O)C2)Oc2ncnc3c2cnn3-c2c(Cl)cccc2Cl)nc1")
251

[A] C[C@@H](CO)OC[C@H](Oc1ncnc2c1cnn2-c1ncccc1Cl)C(=O)Nc1ccc(Cl)cn1
[B] Cc1ccc(NC(=O)[C@H](CCO)Oc2ncnc3c2cnn3-c2ncccc2Cl)nc1
Compare A and B by numeric EC50 and name the larger one. # answer = label of selected item
A

###

subject of test: Hexokinase-4 (Homo sapiens, UniProt P35557)
Sequence (P35557 whole entry): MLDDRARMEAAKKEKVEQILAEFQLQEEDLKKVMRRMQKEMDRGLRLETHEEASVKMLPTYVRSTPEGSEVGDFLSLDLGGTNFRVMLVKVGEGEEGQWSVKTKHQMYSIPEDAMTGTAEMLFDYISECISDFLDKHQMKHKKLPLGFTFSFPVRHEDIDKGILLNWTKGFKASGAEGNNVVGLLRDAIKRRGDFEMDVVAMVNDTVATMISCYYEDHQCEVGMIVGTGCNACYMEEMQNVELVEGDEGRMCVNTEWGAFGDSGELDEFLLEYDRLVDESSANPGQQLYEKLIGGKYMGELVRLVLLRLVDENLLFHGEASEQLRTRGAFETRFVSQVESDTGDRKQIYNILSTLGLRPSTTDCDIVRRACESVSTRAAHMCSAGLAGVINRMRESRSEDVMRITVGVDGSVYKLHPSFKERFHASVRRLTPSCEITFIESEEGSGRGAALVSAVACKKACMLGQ
procedure text: Activation of glucokinase (unknown origin)
condition details: read-out: pEC50 (converted)
assay readout: EC50 (nM)

Use the examples below as a reference point.
>>> value_reported("O=C(Nc1ccc(Cl)cn1)[C@H](COCCO)Oc1ncnc2c1cnn2-c1ccccc1Cl")
200
>>> value_reported("N#Cc1ccc(NC(=O)[C@H](CN2CC(O)C2)Oc2ncnc3c2cnn3-c2c(Cl)cccc2C#N)nc1")
501
>>> value_reported("C[C@H](CO)OC[C@H](Oc1ncnc2c1cnn2-c1ncccc1Cl)C(=O)Nc1ccc(F)cn1")
794

[I] O=C(Nc1ccc(F)cn1)[C@H](COCCO)Oc1ncnc2c1cnn2-c1c(Cl)cccc1Cl
[II] C[C@@H](CO)OC[C@H](Oc1ncnc2c1cnn2-c1ncccc1Cl)C(=O)Nc1ccc(F)cn1
[III] N#Cc1cccc(Cl)c1-n1ncc2c(O[C@@H](CN3CC(O)C3)C(=O)Nc3ccc(F)cn3)ncnc21
[IV] O=C(Nc1ccc(Cl)cn1)[C@H](CN1CC(O)C1)Oc1ncnc2c1cnn2-c1ccccc1Cl
Order the records, beginning with the lowest EC50 and ending with the highest. Answer by listing the labels in the requested order.
IV, I, III, II
(IV: 63.1 nM, I: 126 nM, III: 200 nM, II: 2510 nM)

[I] O=C(Nc1ccc(F)cn1)[C@H](COCCO)Oc1ncnc2c1cnn2-c1c(F)cccc1Cl
[II] C[C@H](CO)OC[C@H](Oc1ncnc2c1cnn2-c1ncccc1Cl)C(=O)Nc1ccc(Cl)cn1
Compare reported EC50 values for I and II . Which is lower? Pick one and reply with its label.
I
(I: 200 nM, II: 398 nM)
